Biological target: T1, IL-1beta (UniProt P01584 117-269)
T1 construct: also called IL-1β
Assay: Biacore
measure.name: binding result

* XPA23 Fab, heavy chain S52D (Fab, V domains shown) VH: EVQLLESGGGLVQPGGSLRLSCAASGFTFSKYFMFWVRQAPGKGLEWVSVIDPSGGMTRYADSVKGRFTISRDNSKNTLYLQMNSLRAEDTAVYYCARVGYGGNSDYWGQGTLVTVSS VL: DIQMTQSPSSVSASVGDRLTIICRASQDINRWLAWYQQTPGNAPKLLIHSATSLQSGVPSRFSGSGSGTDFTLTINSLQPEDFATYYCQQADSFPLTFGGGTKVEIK | no binding
* XPA23 Fab, heavy chain V50H (Fab, V domains shown) VH: EVQLLESGGGLVQPGGSLRLSCAASGFTFSKYFMFWVRQAPGKGLEWVSHISPSGGMTRYADSVKGRFTISRDNSKNTLYLQMNSLRAEDTAVYYCARVGYGGNSDYWGQGTLVTVSS VL: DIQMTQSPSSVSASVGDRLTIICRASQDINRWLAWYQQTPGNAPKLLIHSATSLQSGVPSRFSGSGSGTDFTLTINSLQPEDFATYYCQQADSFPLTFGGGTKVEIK | no binding
* XPA23 Fab, heavy chain F35R (Fab, V domains shown) VH: EVQLLESGGGLVQPGGSLRLSCAASGFTFSKYFMRWVRQAPGKGLEWVSVISPSGGMTRYADSVKGRFTISRDNSKNTLYLQMNSLRAEDTAVYYCARVGYGGNSDYWGQGTLVTVSS VL: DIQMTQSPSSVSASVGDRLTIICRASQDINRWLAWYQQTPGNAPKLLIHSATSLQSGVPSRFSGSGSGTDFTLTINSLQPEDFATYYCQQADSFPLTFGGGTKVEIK | no binding
